tgt: 5'-nucleotidase (Homo sapiens)
Sequence (P21589 whole entry): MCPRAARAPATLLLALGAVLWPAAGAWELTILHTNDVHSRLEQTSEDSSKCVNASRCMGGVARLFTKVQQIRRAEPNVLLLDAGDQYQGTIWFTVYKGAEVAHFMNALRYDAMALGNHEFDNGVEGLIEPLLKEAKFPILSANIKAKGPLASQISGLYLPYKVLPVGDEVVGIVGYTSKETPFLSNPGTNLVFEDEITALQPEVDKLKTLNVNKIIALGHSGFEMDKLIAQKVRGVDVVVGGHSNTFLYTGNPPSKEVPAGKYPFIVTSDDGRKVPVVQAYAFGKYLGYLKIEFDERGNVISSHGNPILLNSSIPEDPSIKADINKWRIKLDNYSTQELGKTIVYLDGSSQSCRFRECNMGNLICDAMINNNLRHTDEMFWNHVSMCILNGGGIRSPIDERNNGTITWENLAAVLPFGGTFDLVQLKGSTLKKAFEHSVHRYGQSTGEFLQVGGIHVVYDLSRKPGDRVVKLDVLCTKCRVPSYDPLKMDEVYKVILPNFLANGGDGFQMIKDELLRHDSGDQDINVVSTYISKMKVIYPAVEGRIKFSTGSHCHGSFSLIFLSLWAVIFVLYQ
property: IC50

1. CNc1nc(Cl)nc2c1cnn2[C@@H]1O[C@H](COCP(=O)(O)O)[C@@H](O)[C@H]1O; < 500 nM
